- protocol: Plasma pharmacokinetics in mice, 10 mg/kg i.v. and p.o.
- condition.context: male, CD1, mouse, in vivo, iv, 10 mg/kg
quantity.name: AUC(0-inf) (µg·h/mL)
Respond with the bare value in µg·h/mL.

I'd like to know its AUC(0-inf). The molecule in question is `Fc1ccc(C(SCCNCCCc2ccccc2)c2ccc(F)cc2)cc1`
2040

* * *

- test.system: UniProtKB P23977
- Sequence (P23977 whole entry): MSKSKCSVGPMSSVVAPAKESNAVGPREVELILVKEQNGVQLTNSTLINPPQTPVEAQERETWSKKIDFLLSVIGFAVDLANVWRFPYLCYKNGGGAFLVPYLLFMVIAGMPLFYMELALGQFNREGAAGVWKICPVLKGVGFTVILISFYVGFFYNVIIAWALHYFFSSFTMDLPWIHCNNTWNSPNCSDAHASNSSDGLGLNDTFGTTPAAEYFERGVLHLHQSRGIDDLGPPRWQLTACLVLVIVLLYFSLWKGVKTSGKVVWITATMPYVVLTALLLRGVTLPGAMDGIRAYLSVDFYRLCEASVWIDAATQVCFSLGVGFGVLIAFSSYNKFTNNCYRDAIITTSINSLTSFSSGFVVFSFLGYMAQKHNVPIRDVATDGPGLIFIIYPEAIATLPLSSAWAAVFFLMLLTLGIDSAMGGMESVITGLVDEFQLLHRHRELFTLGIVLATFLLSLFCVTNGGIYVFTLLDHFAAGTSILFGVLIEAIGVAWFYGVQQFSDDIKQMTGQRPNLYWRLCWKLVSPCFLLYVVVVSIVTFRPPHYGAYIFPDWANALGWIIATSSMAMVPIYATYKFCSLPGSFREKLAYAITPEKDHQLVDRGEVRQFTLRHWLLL
- protocol: Dopamine Transporter Binding Assay ([3H]WIN 35428, rat striatal membranes)
- condition.context: rat brain membranes; Table 1 thioacetamides and sulfinylacetamides; read-out: Ki (nM) ± S.E.M. DAT
quantity.name: Ki
Answer format: value, then unit.

Study these solved cases before continuing.
O=C(CSC(c1ccc(Br)cc1)c1ccc(Br)cc1)NCC1CC1: 993 nM
CNC(=O)CSC(c1ccc(Br)cc1)c1ccc(Br)cc1: 3030 nM
NC(=O)CSC(c1cccc(Cl)c1)c1cccc(Cl)c1: 277 nM

I'd like to know its Ki. The compound in question is NC(=O)C[S+]([O-])C(c1cccc(F)c1)c1cccc(F)c1 (stereo not shown)
6180 nM

I'd like to know its Ki. The compound in question is CNC(=O)C[S+]([O-])C(c1ccccc1)c1ccccc1 (stereo not shown) [Compound 3f, 2-(Benzhydrylsulfinyl)-N-methylacetamide]
13400 nM

* * *

- test.system: norepinephrine transporter (NET) (Rattus norvegicus, UniProt Q63380)
- Sequence (Q63380 1-617): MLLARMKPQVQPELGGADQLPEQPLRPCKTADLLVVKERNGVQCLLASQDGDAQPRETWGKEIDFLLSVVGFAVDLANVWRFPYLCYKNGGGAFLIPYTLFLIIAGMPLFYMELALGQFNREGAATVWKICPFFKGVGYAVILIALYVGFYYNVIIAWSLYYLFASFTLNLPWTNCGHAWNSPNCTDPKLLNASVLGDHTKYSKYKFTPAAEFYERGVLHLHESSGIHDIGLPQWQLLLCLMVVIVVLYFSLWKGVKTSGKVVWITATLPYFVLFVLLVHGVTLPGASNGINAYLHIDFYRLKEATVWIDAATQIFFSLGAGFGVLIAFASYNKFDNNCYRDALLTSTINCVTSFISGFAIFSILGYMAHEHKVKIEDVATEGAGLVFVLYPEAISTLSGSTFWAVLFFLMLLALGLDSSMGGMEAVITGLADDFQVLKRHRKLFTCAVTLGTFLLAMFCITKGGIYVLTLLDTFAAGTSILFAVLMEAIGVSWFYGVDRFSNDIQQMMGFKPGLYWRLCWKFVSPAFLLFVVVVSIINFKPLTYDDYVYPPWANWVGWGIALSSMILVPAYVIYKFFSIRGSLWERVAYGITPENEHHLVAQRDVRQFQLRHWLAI
- condition.context: read-out: NET Ki ± SEM; rat brain membranes; Table 5 piperazinyl derivatives
quantity.name: Ki (µM)
Respond with the bare value in µM.

Study these solved cases before continuing.
[O-][S+](CCN1CCN(CCCc2ccccc2)CC1)C(c1ccc(F)cc1)c1ccc(F)cc1 (centres unmarked) [Compound 8b]: 4.28
CC(O)CN1CCN(CCSC(c2ccccc2)c2ccccc2)CC1 (racemic) [Compound 9a]: 44.5
[O-][S+](CCN1CCN(CCCc2ccccc2)CC1)C(c1ccccc1)c1ccccc1 (centres unmarked) [Compound 8a]: 5.54
OC(Cc1ccccc1)CN1CCN(CCSC(c2ccccc2)c2ccccc2)CC1 (racemic) [Compound 9g]: 1.43
OC(Cc1ccccc1)CN1CCN(CCSC(c2ccc(F)cc2)c2ccc(F)cc2)CC1 (racemic) [Compound 9j]: 1.95

I'd like to know its Ki. The compound in question is c1ccc(CCCN2CCN(CCSC(c3ccccc3)c3ccccc3)CC2)cc1 [Compound 7a]
0.988

I'd like to know its Ki. The compound in question is [O-][S+](CCN1CCN(CC(O)Cc2ccccc2)CC1)C(c1ccccc1)c1ccccc1 (racemic) [Compound 10g]
25.3

I'd like to know its Ki. The compound in question is Fc1ccc(C(SCCN2CCN(CCCc3ccccc3)CC2)c2ccc(F)cc2)cc1 [Compound 7b]
1.89

* * *

- test.system: norepinephrine transporter (NET) (Rattus norvegicus, UniProt Q63380)
- condition.context: read-out: Ki (nM) ± S.E.M. NET; rat brain membranes; Table 1 thioacetamides and sulfinylacetamides
The following compounds are shown together with reported Ki values.

Study these solved cases before continuing.
O=C(CSC(c1ccc(Br)cc1)c1ccc(Br)cc1)NCCCc1ccccc1 [Compound 2x]: 36300 nM
CCCNC(=O)CSC(c1ccc(Br)cc1)c1ccc(Br)cc1 [Compound 2n]: 10600 nM
O=C(C[S+]([O-])C(c1ccc(Br)cc1)c1ccc(Br)cc1)NCCCc1ccccc1 (stereo not shown) [Compound 3g]: > 100000 nM
O=C(CSC(c1ccccc1)c1ccccc1)NCC1CC1 [Compound 2o]: > 100000 nM
NC(=O)C[S+]([O-])C(c1cccc(F)c1)c1cccc(F)c1 (stereo not shown) [Compound 3c]: > 100000 nM
NC(=O)C[S+]([O-])C(c1ccccc1)c1cccc(Br)c1 (stereo not shown) [Compound 3e]: > 100000 nM
O=C(CSC(c1ccc(F)cc1)c1ccc(F)cc1)NCC1CC1 [Compound 2p]: 57600 nM
O=C(CSC(c1ccc(Br)cc1)c1ccc(Br)cc1)NCCCCc1ccccc1 [Compound 2z]: > 100000 nM

I'd like to know its Ki. The compound in question is CNC(=O)CSC(c1ccccc1)c1ccccc1 [Compound 2g, 2-(Benzhydrylthio)-N-methylacetamide]
27300 nM

I'd like to know its Ki. The compound in question is NC(=O)C[S+]([O-])C(c1cccc(Cl)c1)c1cccc(Cl)c1 (stereo not shown) [Compound 3d]
> 100000 nM

I'd like to know its Ki. The compound in question is CNC(=O)C[S+]([O-])C(c1ccccc1)c1ccccc1 (stereo not shown) [Compound 3f, 2-(Benzhydrylsulfinyl)-N-methylacetamide]
> 100000 nM

I'd like to know its Ki. The compound in question is C=CCNC(=O)CSC(c1ccccc1)c1ccccc1 [Compound 2j, N-Allyl-2-(benzhydrylthio)acetamide]
> 230000 nM

I'd like to know its Ki. The compound in question is CCCNC(=O)CSC(c1ccccc1)c1ccccc1 [Compound 2k, 2-(Benzhydrylthio)-N-propylacetamide]
55900 nM
